meta.source: patent US7517902B2

Target: human KDR enzyme (Homo sapiens, UniProt P35968)
Construct: The cytoplasmic domain of the human KDR enzyme was cloned in the form of a GST fusion; GST
Sequence (P35968 786-1356 limits assumed): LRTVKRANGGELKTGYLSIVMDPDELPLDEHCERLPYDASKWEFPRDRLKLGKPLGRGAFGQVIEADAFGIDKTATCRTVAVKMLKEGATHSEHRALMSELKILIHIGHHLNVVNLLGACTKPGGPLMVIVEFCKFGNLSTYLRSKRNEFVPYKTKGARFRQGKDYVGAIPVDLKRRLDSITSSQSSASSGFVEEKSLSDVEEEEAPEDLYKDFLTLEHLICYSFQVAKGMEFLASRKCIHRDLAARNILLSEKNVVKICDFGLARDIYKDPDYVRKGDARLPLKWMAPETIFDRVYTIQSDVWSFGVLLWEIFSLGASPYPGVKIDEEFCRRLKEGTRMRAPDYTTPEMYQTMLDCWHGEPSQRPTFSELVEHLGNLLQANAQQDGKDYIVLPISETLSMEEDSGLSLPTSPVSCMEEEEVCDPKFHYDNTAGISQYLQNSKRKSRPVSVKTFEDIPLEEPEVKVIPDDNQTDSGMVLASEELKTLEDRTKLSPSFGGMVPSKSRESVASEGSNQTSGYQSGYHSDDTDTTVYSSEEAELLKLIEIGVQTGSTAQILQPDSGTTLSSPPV
Test: KDR substrate phosphorylation assay (scintillation, 96-well plate)
Counter-ions that a name gives are not always drawn.
Note to self: IC50 under 0.09 µM means rule met, ties and anything higher get rule not met.

> print(dat)
                                   compound                                 tested.on  assigned.class
1  Nc1n[nH]c2cc(-c3ccc(NC(=O)Nc4cc(C(F)(F)F)ccc4F)cc3)ccc12 [Example 1, hydrochloride]  human KDR enzyme (Homo sapiens, UniProt P35968)        rule met
2  Nc1ccc(-c2ccc3c(NC(=O)c4ccsc4)n[nH]c3c2F)cc1 [Example 4, hydrochloride]  human KDR enzyme (Homo sapiens, UniProt P35968)    rule not met
3  O=C(Nc1ccc(-c2ccc3c(NC(=O)c4ccsc4)n[nH]c3c2F)cc1F)Nc1cc(C(F)(F)F)ccc1F  human KDR enzyme (Homo sapiens, UniProt P35968)        rule met
4  Nc1n[nH]c2c(F)c(-c3ccc(NC(=O)Nc4cccc(C(F)(F)F)c4)cc3)ccc12  human KDR enzyme (Homo sapiens, UniProt P35968)    rule not met
5  Cc1ccc(-n2nc(C(C)(C)C)cc2NC(=O)Nc2ccc(-c3ccc4c(NC(=O)c5ccsc5)n[nH]c4c3F)cc2)cc1  human KDR enzyme (Homo sapiens, UniProt P35968)        rule met
6  O=C(Nc1ccccc1)Nc1ccc(-c2ccc3c(NC(=O)c4ccsc4)n[nH]c3c2F)cc1  human KDR enzyme (Homo sapiens, UniProt P35968)    rule not met

stdin: Quick check: IC50 of `O=C(Nc1ccc(-c2ccc3c(NC(=O)c4ccccc4)n[nH]c3c2F)cc1)Nc1cc(C(F)(F)F)ccc1F` under 0.09 µM?
stdout: rule met

stdin: Input `CC(=O)Nc1n[nH]c2c(F)c(-c3ccc(NC(=O)Nc4cc(C(F)(F)F)ccc4F)cc3)ccc12` ; condition: IC50 strictly below 0.09 µM. Does it hold?
stdout: rule met

stdin: Dear colleague, could you confirm whether IC50 of Nc1n[nH]c2c(F)c(-c3ccc(NC(=O)Nc4cc(C(F)(F)F)ccc4F)cc3)ccc12 [Example 7, hydrochloride] falls below 0.09 µM? Thanks.
stdout: rule not met

stdin: Strictly below 0.09 µM: is that where IC50 of `O=C(Nc1ccc(-c2ccc3c(NC(=O)c4ccsc4)n[nH]c3c2F)cc1)Nc1cc(C(F)(F)F)ccc1F` sits?
stdout: rule met

* * *

Biological target: CDK4/cyclin D1 kinase complex (Homo sapiens)
Construct: HA (Hemagglutinin tag) (C)
Sequence (P11802 whole entry): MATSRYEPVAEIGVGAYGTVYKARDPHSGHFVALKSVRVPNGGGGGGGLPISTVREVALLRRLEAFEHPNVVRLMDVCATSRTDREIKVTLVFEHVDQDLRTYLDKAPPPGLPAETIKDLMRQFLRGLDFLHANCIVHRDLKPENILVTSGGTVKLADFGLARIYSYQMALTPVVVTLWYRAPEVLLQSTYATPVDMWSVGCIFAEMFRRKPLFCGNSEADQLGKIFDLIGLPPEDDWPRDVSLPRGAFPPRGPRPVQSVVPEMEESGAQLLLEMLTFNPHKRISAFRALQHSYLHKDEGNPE
Sequence (P24385 whole entry partner): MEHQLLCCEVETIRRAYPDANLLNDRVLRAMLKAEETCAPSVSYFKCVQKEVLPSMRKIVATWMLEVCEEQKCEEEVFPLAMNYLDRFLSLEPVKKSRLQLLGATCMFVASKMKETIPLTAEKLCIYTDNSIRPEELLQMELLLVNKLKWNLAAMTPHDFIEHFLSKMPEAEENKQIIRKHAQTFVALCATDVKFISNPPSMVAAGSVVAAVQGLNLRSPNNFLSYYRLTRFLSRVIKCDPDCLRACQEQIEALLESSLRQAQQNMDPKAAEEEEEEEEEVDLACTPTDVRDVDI
Test: CDK4/cyclinD1 Flashplate assay in 96-well format
Conditions: read-out: IC 50 CDK4
Where a name gives a salt, the structure may show the parent alone.
Listed molecules paired with reported pIC50
As a rule, pIC50 stands for the negative log10 of the concentration, concentration in M.

Worked examples, 6 molecules total:
> print(dat)
                                   molecule  recorded.number
1  CS(=O)(=O)Nc1ccc(-c2ccc3c(NC(=O)c4ccsc4)n[nH]c3c2F)cc1             5.68
2  Cn1cnc(S(=O)(=O)Nc2ccc(-c3ccc4c(NC(=O)c5ccsc5)n[nH]c4c3F)cc2)c1             5.44
3  O=C(Nc1n[nH]c2c(F)c(-c3ccc(NS(=O)(=O)c4cccc5ccccc45)cc3)ccc12)c1ccsc1             6.31
4  O=C(Nc1n[nH]c2cc(-c3ccc(NS(=O)(=O)c4cccc(Cl)c4Cl)cc3)ccc12)c1ccsc1             6.84
5  Nc1n[nH]c2cc(-c3ccc(NS(=O)(=O)c4cccc(Cl)c4Cl)cc3)ccc12 [Example 2, hydrochloride]             6.88
6  Nc1n[nH]c2c(F)c(-c3ccc(NS(=O)(=O)c4cccc(Cl)c4Cl)cc3)ccc12 [Example 8, hydrochloride]             6.93

Note to self: pIC50 recorded for `O=C(Nc1n[nH]c2c(F)c(-c3ccc(NS(=O)(=O)c4ccccc4)cc3)ccc12)c1ccsc1` was 6.13

Briefly, pIC50 measured for `O=C(Nc1n[nH]c2c(F)c(-c3ccc(NS(=O)(=O)c4ccccc4Cl)cc3)ccc12)c1ccsc1` : 7.29

Lookup result for `CC(=O)Nc1ccc(S(=O)(=O)Nc2ccc(-c3ccc4c(NC(=O)c5ccsc5)n[nH]c4c3F)cc2)cc1` ; measured pIC50: 5.92

# molecule `O=C(Nc1n[nH]c2c(F)c(-c3ccc(NS(=O)(=O)C4CC4)cc3)ccc12)c1ccsc1` ; its pIC50 = 5.44

Kindly note the recorded pIC50 for `O=C(Nc1n[nH]c2c(F)c(-c3ccc(NS(=O)(=O)c4cccc(Cl)c4Cl)cc3)ccc12)c1ccsc1` , which is 7.26

Please fill in: pIC50 reported for `O=C(Nc1n[nH]c2c(F)c(-c3ccc(NS(=O)(=O)c4cccc(Cl)c4)cc3)ccc12)c1ccsc1` = 6.38

The recorded pIC50 for `O=C(Nc1n[nH]c2c(F)c(-c3ccc(NS(=O)(=O)c4cccs4)cc3)ccc12)c1ccsc1` is 6.14
